Protein target, amino acids: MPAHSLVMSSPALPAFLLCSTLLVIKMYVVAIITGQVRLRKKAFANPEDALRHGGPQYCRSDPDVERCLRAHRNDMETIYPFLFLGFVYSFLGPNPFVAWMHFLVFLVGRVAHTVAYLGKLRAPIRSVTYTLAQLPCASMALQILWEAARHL
assay endpoint: IC50 (nM)
A number alone suffices; assume nM.

1) Cc1ccc(C#Cc2ccc(CCS(=O)(=O)Nc3ccccc3S(N)(=O)=O)c(OCC3CCOCC3)c2)cc1 [Example 14]    2.1
2) NS(=O)(=O)c1ccccc1NS(=O)(=O)CCc1ccc(Cl)cc1OCC1CCC(F)(F)CC1 [Example 6]    2.7

// query Quick check: IC50 of NS(=O)(=O)c1ccccc1NS(=O)(=O)CCc1ccc(Cl)cc1OCC1CCOCC1 [Example 2] ?
// result 3.5

// query Quick check: IC50 of NS(=O)(=O)c1ccccc1NS(=O)(=O)CCc1ccc(C#Cc2ccccc2)cc1OCC1CCOCC1 [Example 9] ?
// result 3.4

// query Quick check: IC50 of NS(=O)(=O)c1ccccc1NS(=O)(=O)CCc1ccc(Br)cc1OCC1CCOCC1 [Example 1] ?
// result 3.4
